# credit: ChEMBL document CHEMBL4627381

# Target or test system: ABCG2 (Homo sapiens)
# Sequence (Q9UNQ0 whole entry): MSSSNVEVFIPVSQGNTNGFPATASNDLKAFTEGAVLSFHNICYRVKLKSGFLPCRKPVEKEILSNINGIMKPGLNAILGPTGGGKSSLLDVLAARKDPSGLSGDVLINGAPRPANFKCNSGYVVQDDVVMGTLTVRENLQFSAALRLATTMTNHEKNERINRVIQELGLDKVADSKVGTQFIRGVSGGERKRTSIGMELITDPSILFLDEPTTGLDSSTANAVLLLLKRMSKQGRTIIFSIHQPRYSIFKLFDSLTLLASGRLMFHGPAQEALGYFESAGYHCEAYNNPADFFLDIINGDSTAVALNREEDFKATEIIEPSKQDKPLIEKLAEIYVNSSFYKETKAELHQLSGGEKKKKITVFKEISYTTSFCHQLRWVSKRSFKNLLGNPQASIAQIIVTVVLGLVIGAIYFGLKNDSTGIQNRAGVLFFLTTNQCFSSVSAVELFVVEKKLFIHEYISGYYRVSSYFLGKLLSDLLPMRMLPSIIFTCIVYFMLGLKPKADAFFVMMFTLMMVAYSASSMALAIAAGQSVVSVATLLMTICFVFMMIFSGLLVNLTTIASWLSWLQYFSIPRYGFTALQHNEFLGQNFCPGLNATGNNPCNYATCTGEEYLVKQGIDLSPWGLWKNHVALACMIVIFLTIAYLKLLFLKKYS
# Experiment: Modulation of ABCG2 (unknown origin) expressed in High Five insect cell vesicle membrane assessed as maximal stimulation of ATPase activity after 20 mins by colorimetric assay relative to baseline
# Condition context: membrane vesicles of High Five insect cells expressing ABCG2, read-out: Activity
Parameter measured: Emax at 20 min

>>> recorded_measurement("C=CC(C)(C)c1cc(/C=C/C(=O)c2ccc(O)cc2)c(OC)cc1O [LICOAGROCHACONE A]")
"150%"

----------
# Experiment: Cytotoxicity against human NCI-H460/MX20 cells harboring ABCG2 after 72 hrs by MTT assay
# Assay type: functional, cell-based
# Condition context: NCI-H460/MX20, 72 h
pIC50: −log10 of the molar value.
Parameter measured: pIC50

>>> recorded_measurement("C=CC(C)(C)c1cc(/C=C/C(=O)c2ccc(O)cc2)c(OC)cc1O [LICOAGROCHACONE A]")
"4.30 to 5.00"

----------
# System: HEK293
# Experiment: Cytotoxicity against HEK293 cells overexpressing human ABCG2 after 72 hrs by CCK8 assay
# Format: ADME, cell-based
# Condition context: HEK293, 72 h
pIC50: −log10 of the molar value.
Parameter measured: pIC50

>>> recorded_measurement("C=CC(C)(C)c1cc(/C=C/C(=O)c2ccc(O)cc2)c(OC)cc1O")
"4.30 to 5.00"
